SUBJECT_OF_TEST: human Factor IXa (human, UniProt P00740 47-191; P00740 227-461)
ASSAY_INFO: cell-based or functional assay
Bridge positions count the residues as written; N and C are the ends. Square brackets hold non-standard residues; d marks the D form. Primed or numbered codes have the meaning given here. Side chains are listed from the residue outwards. Ends that are not written are not given here. * marks the point of attachment. Biotin = O=C1N[C@H]2[C@H](CS[C@H]2CCCCC(=O)*)N1; PEG2(3) = PEG2 spacer carrying biotin on Lys; NMeL = CN[C@@H](CC(C)C)C(=O)O; PEG = not defined here
MEASUREMENT_NAME: EC50 [µM], FXa generation assay

INSERT INTO results (binder, measured) VALUES
  ('KKK[dK][NMeL]TCLASYCWLF (not fully specified; printed as KKK-k-MeLeu-TCLASYCWLF; cysteine pairing not given here) [KKK-k-MeLeu-TCLASYCWLF]', '> 20 µM');

Enquiry: Can you share its EC50 [µM], FXa generation assay? I mean this binder: PRIRTVGPGSRSASGKLTCVASYCWLFWTGIA
Return: > 1 µM

Enquiry: Can you share its EC50 [µM], FXa generation assay? I mean this binder: KKTCVASFCQMI
Return: > 5 µM

Enquiry: Can you share its EC50 [µM], FXa generation assay? I mean this binder: RRAPGKLTCLASYAWLCWTGIA-OH (cysteine pairing not given here) [RRAPGKLTCLASYAWLCWTGIA-COOH]
Return: > 10 µM

Enquiry: Can you share its EC50 [µM], FXa generation assay? I mean this binder: RSTVSQMRCLASYCWLFPALVS
Return: < 0.5 µM

Enquiry: Can you share its EC50 [µM], FXa generation assay? I mean this binder: RRAPG[dK]LTCLASYCWLFWTGIA (disulfide 9-14 (inferred)) [RRAPGkLTCLASYCWLFWTGIA]
Return: < 0.5 µM

Enquiry: Can you share its EC50 [µM], FXa generation assay? I mean this binder: RRAPGK([PEG2(3)-Biotin])LTCLASYCWLFWTGIA (not fully specified (bridges); printed as RRAPGK(PEG2-Biotin)LTCLASYCWLFWTGIA; cysteine pairing not given here) [RRAPGK(PEG2-Biotin)LTCLASYCWLFWTGIA]
Return: < 0.5 µM

Enquiry: Can you share its EC50 [µM], FXa generation assay? I mean this binder: {(PEG)27-(PEG)27}-KLTCLASYCWLF (cysteine pairing not given here) [(PEG)27(PEG)27-KLTCLASYCWLF]
Return: > 1 µM

Enquiry: Can you share its EC50 [µM], FXa generation assay? I mean this binder: QLPCLASYCGLF
Return: > 20 µM

Enquiry: Can you share its EC50 [µM], FXa generation assay? I mean this binder: RGSVHQPTCLGGYCGRLHSSWV
Return: > 50 µM

Enquiry: Can you share its EC50 [µM], FXa generation assay? I mean this binder: E([PEG-Biotin])RAPGKLTCLASYCWLFWTGIA (not fully specified; printed as Glu(Biotinyl-PEG)-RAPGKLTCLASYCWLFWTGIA; cysteine pairing not given here; reading uncertain) [Glu(Biotinyl-PEG)-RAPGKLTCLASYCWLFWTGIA]
Return: > 4 µM
